Target: MMP-12 (Homo sapiens, UniProt P39900)
Sequence (P39900 106-470): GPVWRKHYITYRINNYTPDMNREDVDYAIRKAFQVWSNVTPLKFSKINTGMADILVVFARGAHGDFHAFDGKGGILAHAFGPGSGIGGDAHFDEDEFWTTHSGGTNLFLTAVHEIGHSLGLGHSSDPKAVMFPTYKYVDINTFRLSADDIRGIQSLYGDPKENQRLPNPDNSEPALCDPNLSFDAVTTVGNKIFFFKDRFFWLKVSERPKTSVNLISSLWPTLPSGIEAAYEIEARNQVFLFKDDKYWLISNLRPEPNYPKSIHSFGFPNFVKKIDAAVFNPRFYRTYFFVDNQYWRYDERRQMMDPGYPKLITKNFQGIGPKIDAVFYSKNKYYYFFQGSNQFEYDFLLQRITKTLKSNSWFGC
Listed next: entries and their corresponding pIC50.
Please express pIC50 as -log10 of the molar concentration.

{"COMPOUND": "CC(C)(Cc1ccccc1)NC(=O)[C@H](CCC(=O)O)NC(=O)c1ccc(-c2ccc(F)cc2)s1", "ASSAY_RESULT": 5.54}

Lab note: MMP-12 (Homo sapiens, UniProt P39900) assay, enter pIC50 for `CC(C)(Cc1ccc(F)cc1)NC(=O)[C@H](CCC(=O)O)NC(=O)c1ccc(-c2cccs2)cc1` here
6.17

Write pIC50 of `CC(C)(Cc1ccc(Cl)cc1)NC(=O)[C@H](CCC(=O)O)NC(=O)c1ccc(-c2cccc(Cl)c2)cc1` ; system used: MMP-12 (Homo sapiens, UniProt P39900)
5.43

---

Target: purified recombinant human Aggrecanase-2 (Ag2t-Phe628-Strep) (Homo sapiens, UniProt Q9UNA0)
Construct: the form used is denoted as Ag2t-Phe628-Strep (MW=41,737)
Assay: In vitro fluorescence screen for Aggrecanase-2 inhibitors
Format: biochemical
Conditions: Table 3; read-out: Agg 2 IC50
Entries annotated with measured IC50

Please report IC50 for the following compound: `CC(C)(Cc1ccc(F)cc1)NC(=O)[C@H](CCC(=O)O)NC(=O)c1ccc(-c2ccccc2)s1`
60 to 200 nM

---

Biological target: purified recombinant human Aggrecanase-2 (Ag2t-Phe628-Strep) (Homo sapiens)
Construct: the form used is denoted as Ag2t-Phe628-Strep (MW=41,737)
Assay: In vitro fluorescence screen for Aggrecanase-2 inhibitors
Type: biochemical
Conditions: Table 2; read-out: Agg 2 IC50
Catalogue of compounds with associated IC50

Note IC50 for the compound shown: `O=C(O)CC[C@H](NC(=O)c1ccc(Oc2ccccc2)cc1)C(=O)NCCCCCCO`
> 22 µM

Find the measured IC50 of O=C(O)CC[C@H](NC(=O)c1ccc(C#CC2CCC(O)CC2)cc1)C(=O)NCc1ccccc1 (stereo partly shown) [Example 17QQ] and report it.
~22 µM

Report IC50 for `COc1cc(CNC(=O)[C@H](CCC(=O)O)NC(=O)c2cccc3c2-c2ccccc2C3)cc(OC)c1OC`
> 200 µM

Supply IC50 value. Item: `COc1cc(CNC(=O)[C@H](CCC(=O)O)NC(=O)c2cccc(Oc3ccccc3)c2)cc(OC)c1OC`
> 67 µM

---

pIC50 for assorted molecules
Biological target: MMP-1 (Homo sapiens)
Sequence (P03956 100-469): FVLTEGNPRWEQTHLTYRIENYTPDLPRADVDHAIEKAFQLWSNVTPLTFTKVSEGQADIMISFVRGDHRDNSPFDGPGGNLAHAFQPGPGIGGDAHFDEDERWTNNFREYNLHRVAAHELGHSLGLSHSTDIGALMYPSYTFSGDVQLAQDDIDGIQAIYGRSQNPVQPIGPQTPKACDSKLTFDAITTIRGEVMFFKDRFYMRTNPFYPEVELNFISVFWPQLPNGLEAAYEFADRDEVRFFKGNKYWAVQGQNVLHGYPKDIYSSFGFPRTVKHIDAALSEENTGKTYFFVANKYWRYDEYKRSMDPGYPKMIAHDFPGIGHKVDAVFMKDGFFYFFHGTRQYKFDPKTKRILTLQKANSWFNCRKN
pIC50: −log10 of the molar value.

Consider the following illustrative entries.
{"MOLECULE": "Cc1cc(C)cc(-c2ccc(C(=O)N[C@@H](CCC(=O)O)C(=O)NCc3ccccc3)cc2)c1 [Example 13A]", "RECORDED_ENDPOINT": "pIC50", "ASSAY_RESULT": "< 4.00"}
{"MOLECULE": "O=C(O)CC[C@H](NC(=O)c1ccc(-c2ccccc2)cc1)C(=O)NCc1ccc(F)c(C(F)(F)F)c1", "RECORDED_ENDPOINT": "pIC50", "ASSAY_RESULT": "< 4.30"}

Next, consider the following molecule.
Dear colleague, please send me the reported pIC50 for `O=C(O)CC[C@H](NC(=O)c1ccc(-c2ccccc2)cc1)C(=O)NCc1ccc(F)cc1` when you can.
< 4.00

---

Molecular target: purified recombinant human Aggrecanase-2 (Ag2t-Phe628-Strep) (Homo sapiens)
Construct: the form used is denoted as Ag2t-Phe628-Strep (MW=41,737)
Sequence (Q9UNA0 262-628): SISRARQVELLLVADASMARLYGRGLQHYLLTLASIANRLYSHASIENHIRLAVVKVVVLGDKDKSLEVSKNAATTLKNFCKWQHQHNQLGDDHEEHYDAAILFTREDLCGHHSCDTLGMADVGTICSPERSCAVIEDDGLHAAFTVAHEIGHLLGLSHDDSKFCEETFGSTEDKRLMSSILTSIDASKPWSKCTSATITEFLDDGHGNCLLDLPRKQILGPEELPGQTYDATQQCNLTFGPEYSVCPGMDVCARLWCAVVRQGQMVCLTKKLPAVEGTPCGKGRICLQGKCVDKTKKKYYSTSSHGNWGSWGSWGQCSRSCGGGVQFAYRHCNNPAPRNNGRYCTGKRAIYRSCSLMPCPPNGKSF
Test: In vitro fluorescence screen for Aggrecanase-2 inhibitors
Format: biochemical
Conditions: Table 3; read-out: Agg 2 IC50
RECORDED_ENDPOINT: pIC50
Just so you know, pIC50 here is -log10 of the concentration in molar units; reply with that number alone.

{"COMPOUND": "CC(C)(Cc1ccccc1)NC(=O)[C@H](CCC(=O)O)NC(=O)c1ccc(-c2cccc(F)c2)cc1", "TARGET_OR_TEST_SYSTEM": "purified recombinant human Aggrecanase-2 (Ag2t-Phe628-Strep) (Homo sapiens)", "pIC50": 7.10}
{"COMPOUND": "COc1cc(COc2cccc(-c3ccc(C(=O)N[C@@H](CCC(=O)O)C(=O)NCc4cc(OC)c(OC)c(OC)c4)cc3)c2)cc(OC)c1 [Example 15L]", "TARGET_OR_TEST_SYSTEM": "purified recombinant human Aggrecanase-2 (Ag2t-Phe628-Strep) (Homo sapiens)", "pIC50": 6.38}
{"COMPOUND": "CC(C)(Cc1ccc(F)cc1)NC(=O)[C@H](CCC(=O)O)NC(=O)c1ccc(-c2ccc(Cl)cc2)cc1", "TARGET_OR_TEST_SYSTEM": "purified recombinant human Aggrecanase-2 (Ag2t-Phe628-Strep) (Homo sapiens)", "pIC50": 7.23}

Please examine the following record next.
// fetch pIC50 given entry `CC(C)(Cc1ccccc1)NC(=O)[C@H](CCC(=O)O)NC(=O)c1ccc(-c2ccc(F)c(F)c2)cc1`
6.80

---

Biological target: purified recombinant human Aggrecanase-1 (rAgg1) (Homo sapiens, UniProt O75173)
Sequence (O75173 213-837): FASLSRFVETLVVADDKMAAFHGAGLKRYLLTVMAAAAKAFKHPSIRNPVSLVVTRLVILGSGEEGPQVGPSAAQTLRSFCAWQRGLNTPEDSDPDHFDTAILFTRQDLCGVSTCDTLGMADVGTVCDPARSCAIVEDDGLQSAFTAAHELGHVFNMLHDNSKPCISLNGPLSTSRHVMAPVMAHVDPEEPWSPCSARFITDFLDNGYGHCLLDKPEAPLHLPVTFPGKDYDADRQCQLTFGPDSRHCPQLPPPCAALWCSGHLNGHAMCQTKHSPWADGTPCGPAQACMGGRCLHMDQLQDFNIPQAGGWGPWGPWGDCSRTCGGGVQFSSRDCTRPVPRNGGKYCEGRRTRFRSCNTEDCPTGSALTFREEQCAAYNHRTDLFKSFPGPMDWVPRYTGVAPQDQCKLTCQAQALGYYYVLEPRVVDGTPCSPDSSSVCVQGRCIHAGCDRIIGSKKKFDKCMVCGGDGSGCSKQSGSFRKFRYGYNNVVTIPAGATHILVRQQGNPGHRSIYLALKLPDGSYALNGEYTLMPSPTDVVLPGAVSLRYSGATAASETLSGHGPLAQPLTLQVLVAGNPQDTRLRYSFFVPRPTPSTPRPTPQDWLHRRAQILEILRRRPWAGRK
Test: In vitro fluorescence screen for Aggrecanase-1 inhibitors
Assay type: biochemical
Conditions: Table 2; read-out: Agg1 IC50
pIC50: −log10 of the molar value.
Reported pIC50 values for a set of compounds

Here's what some known entries look like.
{"COMPOUND": "O=C(O)CC[C@H](NC(=O)C1c2ccccc2-c2ccccc21)C(=O)NCCCCCCO", "ASSAY_RESULT": "< 4.77"}
{"COMPOUND": "COc1cccc(C#Cc2ccc(C(=O)N[C@@H](CCC(=O)O)C(=O)NCc3ccccc3)cc2)c1 [Example 12L]", "ASSAY_RESULT": "~4.66"}

Find the measured pIC50 of Nc1cccc(C#Cc2ccc(C(=O)N[C@@H](CCC(=O)O)C(=O)NCc3ccccc3)cc2)c1 [Example 12J] and report it.
~5.10

---

Target: purified recombinant human Aggrecanase-2 (Ag2t-Phe628-Strep) (Homo sapiens, UniProt Q9UNA0)
Construct: the form used is denoted as Ag2t-Phe628-Strep (MW=41,737)
Sequence (Q9UNA0 262-628): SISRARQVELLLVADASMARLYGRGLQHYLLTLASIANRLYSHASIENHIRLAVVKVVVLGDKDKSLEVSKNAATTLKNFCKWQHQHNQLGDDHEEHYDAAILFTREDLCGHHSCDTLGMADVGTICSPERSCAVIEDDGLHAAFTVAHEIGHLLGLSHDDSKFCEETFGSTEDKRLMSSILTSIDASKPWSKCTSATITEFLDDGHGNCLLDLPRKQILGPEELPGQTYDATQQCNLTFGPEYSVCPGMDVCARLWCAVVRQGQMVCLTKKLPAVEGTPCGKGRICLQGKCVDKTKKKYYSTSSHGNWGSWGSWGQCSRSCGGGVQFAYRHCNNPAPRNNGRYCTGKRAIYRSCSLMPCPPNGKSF
Assay: In vitro fluorescence screen for Aggrecanase-2 inhibitors
Format: biochemical
Conditions: Table 2; read-out: Agg 2 IC50
RECORDED_ENDPOINT: IC50

# example entries with known answers
{"COMPOUND": "CN(CCc1ccccc1)C(=O)[C@H](CCC(=O)O)NC(=O)c1ccc(-c2ccccc2)cc1", "IC50": "> 22 µM"}
{"COMPOUND": "CCOc1ccccc1-c1ccc(C(=O)N[C@@H](CCC(=O)O)C(=O)NC(C)(C)Cc2ccccc2)cc1 [Example 17K]", "IC50": "~3.7 µM"}
{"COMPOUND": "CC(C)(Cc1ccc(F)cc1)NC(=O)[C@H](CCC(N)=O)NC(=O)c1ccc(-c2ccccc2)cc1", "IC50": "> 100 µM"}
{"COMPOUND": "O=C(O)CC[C@H](NC(=O)c1ccc(Br)cc1)C(=O)NCC12CC3CC(CC(C3)C1)C2 [Example 18F]", "IC50": "> 67 µM"}
{"COMPOUND": "COc1cc(CNC(=O)[C@H](CCC(=O)O)NC(=O)c2ccc(-c3c(C)cc(C)cc3C)cc2)cc(OC)c1OC [Example 17KK]", "IC50": "> 67 µM"}

We now examine a further compound.
Give the reported value of IC50 for this record: O=C(O)CC[C@H](NC(=O)c1ccc(-c2ccc(OCc3ccccc3)cc2)cc1)C(=O)NCc1ccccc1 [Example 15J]
~3.13 µM

Recorded values, source patent US7998965B2.
